The entries below are paired with their reported pIC50.
experimental.target: NFκB (Homo sapiens, UniProt Q04206)
Construct: endogenous in cells; host or cells: HeLa cells (ATCC), nuclear extract
Sequence (Q04206 whole entry): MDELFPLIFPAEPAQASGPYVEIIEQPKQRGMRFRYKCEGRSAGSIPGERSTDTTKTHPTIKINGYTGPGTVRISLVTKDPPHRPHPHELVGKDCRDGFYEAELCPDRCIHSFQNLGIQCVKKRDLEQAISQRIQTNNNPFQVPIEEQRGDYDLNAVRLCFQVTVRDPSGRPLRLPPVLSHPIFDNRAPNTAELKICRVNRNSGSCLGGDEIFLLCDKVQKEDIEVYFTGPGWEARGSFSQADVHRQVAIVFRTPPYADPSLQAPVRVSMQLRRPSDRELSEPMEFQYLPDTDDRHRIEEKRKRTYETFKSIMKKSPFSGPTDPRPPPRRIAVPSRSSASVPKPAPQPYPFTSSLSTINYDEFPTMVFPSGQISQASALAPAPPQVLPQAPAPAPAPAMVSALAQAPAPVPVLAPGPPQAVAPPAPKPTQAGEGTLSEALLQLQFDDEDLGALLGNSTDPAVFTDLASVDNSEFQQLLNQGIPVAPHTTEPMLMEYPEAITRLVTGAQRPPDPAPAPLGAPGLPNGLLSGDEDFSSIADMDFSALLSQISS
protocol.description: NFκB assay (EZ-Detect Transcription Factor Assay kit; TNF-α-treated HeLa cells, nuclear extracts)
Format: cell-based
experimental.conditions: in vitro NFκB assay
Kindly note that pIC50 refers to -log10 of the concentration in mol/L and answer with the value alone.

Illustrative cases are given below, each with its answer.
- sample.smiles: "C/C=C/c1cc(OC)c2c(c1)[C@H](C)[C@@H](c1ccc3c(c1)OCO3)O2"
  observed: 6.32
- sample.smiles: "C/C=C/c1ccc(O[C@H](C)[C@@H](OC(C)=O)c2ccc3c(c2)OCO3)c(OC)c1"
  observed: 10.00
- sample.smiles: "C/C=C/c1cc(OC)c2c(c1)[C@H](C)[C@@H](c1ccc(O)c(OC)c1)O2"
  observed: 7.51

Read the next record carefully.
In: Given C=CCc1cc(OC)c(O[C@H](C)[C@@H](O)c2ccc3c(c2)OCO3)c(OC)c1 , state its recorded pIC50.
Out: 7.19
